molecular target: MAGE-A1 Dextramer (human); test: KD-SPR estimated from Dextramer staining MFI by the linear formula of Figure 6; not measured by SPR
result-type: pKd
// pKd: -log10(molar conc.)

binder: A1A2-M01-613 (TCR, V domains shown) Valpha: GEDVEQSLFLSVREGDSSVINCTYTDSSLTYLYWYKQEPGAGLQLLTYIFSFMDMKQDQRLTVLLNKKDKHLSLRIADTQTGDSAIYFCAGSGGGTDKLIFGTGTRLQVFP Vbeta: GAVVSQHPSWVICKSGTSVKIECRSLDFQATTMFWYRQFPKQSLMLMATTDYGSKATYEQGVEKDKFLINHASLTLSTLTVTSAHPEDSSFYICSAREPGQGPWEQYFGPGTRLTVT
result: 10.47
//
binder: A1A2-M01-617 (TCR, V domains shown) Valpha: GEDVEQSLFLSVREGDSSVINCTYPDMFSTYLYWYKQEPGAGLQLLTYIFAFMQMKQDQRLTVLLNKKDKHLSLRIADTQTGDSAIYFCAGSGGGTDKLIFGTGTRLQVFP Vbeta: GAVVSQHPSWVICKSGTSVKIECRSLDFEATTMFWYRQFPKQSLMLMATSNEGDQATYEQGVEKDKFLINHASLTLSTLTVTSAHPEDSSFYICSAREPGQGPWEQYFGPGTRLTVT
result: 10.36

Would you mind telling me what pKd value was observed for A1A2-M01-614 (TCR, V domains shown) Valpha: GEDVEQSLFLSVREGDSSVINCTYSDMLSTYLYWYKQEPGAGLQLLTYIFIFQAMKQDQRLTVLLNKKDKHLSLRIADTQTGDSAIYFCAGSGGGTDKLIFGTGTRLQVFP Vbeta: GAVVSQHPSWVICKSGTSVKIECRSLDFEATTMFWYRQFPKQSLMLMATTDYGSKATYEQGVEKDKFLINHASLTLSTLTVTSAHPEDSSFYICSAREPGQGPWEQYFGPGTRLTVT ? 9.68

Taken from patent EP4534554A1.
